The values you see were collected from ChEMBL document CHEMBL1153126.

# assay_procedure: Clearance in rat at 1 mg/kg, iv
# Assay type: ADME, organism-based
# Design: dose 1 mg/kg, route intravenous
# measurement_context: in vivo

| sample_smiles | clearance [mL/min/kg] |
| --- | --- |
| Cc1ccc([C@H]2c3[nH]c4ccc(Cl)cc4c3CCN2C(=O)CCc2ccccc2)cc1 | 3.6 |

----------
# assay_procedure: Cytotoxicity against HFF cells
# Assay type: cell-based
# measurement_context: human
readout_type: CC50

| compound | readout_type | value |
| --- | --- | --- |
| Cc1ccc(C2c3[nH]c4c(C)cccc4c3CCN2C(=O)CCc2ccccc2)cc1 (stereo not drawn) | CC50 | > 100 µM |
| Cc1ccc(C2c3[nH]c4ccccc4c3CCN2C(=O)CCN(C)C)cc1 (stereo not drawn) | CC50 | 40 µM |
| Cc1ccc(C2c3[nH]c4ccccc4c3CCN2C(=O)CCc2ccccc2)cc1 (stereo not drawn) | CC50 | > 100 µM |
| O=C(CCc1ccccc1)N1CCc2c([nH]c3ccccc23)C1COc1ccccc1 (stereo not drawn) | CC50 | > 100 µM |
| COC(=O)C1c2[nH]c3ccccc3c2CCN1C(=O)CCc1ccccc1 (stereo not drawn) | CC50 | > 100 µM |
| Cc1ccc(C2c3[nH]c4ccc(F)cc4c3CCN2C(=O)CCc2ccccc2)cc1 (stereo not drawn) | CC50 | > 100 µM |
| COc1ccc2c3c([nH]c2c1)C(c1ccc(C)cc1)N(C(=O)CCc1ccccc1)CC3 (stereo not drawn) | CC50 | > 100 µM |
| Cc1ccc(C2c3[nH]c4ccccc4c3CCN2CC(C)C)cc1 (stereo not drawn) | CC50 | 50 µM |
| O=C(CCc1ccccc1)N1CCc2c([nH]c3ccccc23)C1CCc1ccccc1 (stereo not drawn) | CC50 | > 100 µM |
| Cc1ccc(C2c3[nH]c4ccc(Cl)cc4c3CCN2C(=O)CCc2ccccc2)cc1 (stereo not drawn) | CC50 | > 100 µM |
| O=C(CCc1ccccc1)N1CCc2c([nH]c3ccccc23)C1CN1CCCC1 (stereo not drawn) | CC50 | 16 µM |
| O=C(CCc1ccccc1)N1CCc2c([nH]c3ccccc23)C1COCc1ccccc1 (stereo not drawn) | CC50 | > 100 µM |
| Cc1ccc(C2c3[nH]c4ccccc4c3CCN2C(=O)/C=C/c2ccccc2)cc1 (stereo not drawn) | CC50 | > 100 µM |
| COC(=O)N1CCc2c([nH]c3ccccc23)C1c1ccc(C)cc1 (stereo not drawn) | CC50 | 31 µM |
| Cc1ccc(C2c3[nH]c4ccccc4c3CCN2C(=O)OCc2ccccc2)cc1 (stereo not drawn) | CC50 | > 100 µM |
| COc1ccc2[nH]c3c(c2c1)CCN(C(=O)CCc1ccccc1)C3c1ccc(C)cc1 (stereo not drawn) | CC50 | > 100 µM |
| O=C(CCc1ccccc1)N1CCc2c([nH]c3ccccc23)C1c1cccnc1 (stereo not drawn) | CC50 | > 100 µM |
| O=C(CCc1ccccc1)N1CCc2c([nH]c3ccccc23)C1c1ccccc1 (stereo not drawn) | CC50 | > 100 µM |
| O=C(C1c2[nH]c3ccccc3c2CCN1C(=O)CCc1ccccc1)N1CCCC1 (stereo not drawn) | CC50 | > 100 µM |
| Cc1ccc(C2c3[nH]c4ccccc4c3CCN2Cc2ccccc2)cc1 (stereo not drawn) | CC50 | 94 µM |
| COc1ccc(S(=O)(=O)N2CCc3c([nH]c4ccccc34)C2c2ccc(C)cc2)cc1 (stereo not drawn) | CC50 | > 100 µM |
| Cc1ccc(C2c3[nH]c4ccccc4c3CCN2S(C)(=O)=O)cc1 (stereo not drawn) | CC50 | > 100 µM |
| Cc1ccc([C@H]2c3[nH]c4ccc(Cl)cc4c3CCN2C(=O)CCc2ccccc2)cc1 | CC50 | > 100 µM |
| Cc1ccc(C2c3[nH]c4ccccc4c3CCN2C(=O)Oc2cccc3ccccc23)cc1 (stereo not drawn) | CC50 | > 100 µM |
| O=C(OCC1c2[nH]c3ccccc3c2CCN1C(=O)CCc1ccccc1)N1CCCC1 (stereo not drawn) | CC50 | > 100 µM |
| CC(C)C[C@H]1c2[nH]c3ccc(Cl)cc3c2CCN1C(=O)CCc1ccccc1 | CC50 | > 100 µM |
| Cc1ccc(C2c3[nH]c4ccccc4c3CCN2C(=O)CCc2cccnc2)cc1 (stereo not drawn) | CC50 | 94 µM |
| Cc1ccc([C@@H]2c3[nH]c4ccc(Cl)cc4c3CCN2C(=O)CCc2ccccc2)cc1 | CC50 | > 100 µM |
| Cc1ccc(C2c3[nH]c4ccccc4c3CCN2C(=O)C#Cc2ccccc2)cc1 (stereo not drawn) | CC50 | > 100 µM |
| CC(C)CC1c2[nH]c3ccccc3c2CCN1C(=O)CCc1ccccc1 (stereo not drawn) | CC50 | 22 µM |
| CC(C)C[C@@H]1c2[nH]c3ccc(Cl)cc3c2CCN1C(=O)CCc1ccccc1 | CC50 | > 100 µM |
| Cc1ccc(C2c3[nH]c4ccc(C)cc4c3CCN2C(=O)CCc2ccccc2)cc1 (stereo not drawn) | CC50 | > 100 µM |
| Cc1ccc(C2c3[nH]c4cc(F)ccc4c3CCN2C(=O)CCc2ccccc2)cc1 (stereo not drawn) | CC50 | > 100 µM |
